Attribute: ratio HsGSK3β/TbGSK3
- Assay system: HsGSK3β (Homo sapiens, UniProt P49841)
- Sequence (P49841 whole entry): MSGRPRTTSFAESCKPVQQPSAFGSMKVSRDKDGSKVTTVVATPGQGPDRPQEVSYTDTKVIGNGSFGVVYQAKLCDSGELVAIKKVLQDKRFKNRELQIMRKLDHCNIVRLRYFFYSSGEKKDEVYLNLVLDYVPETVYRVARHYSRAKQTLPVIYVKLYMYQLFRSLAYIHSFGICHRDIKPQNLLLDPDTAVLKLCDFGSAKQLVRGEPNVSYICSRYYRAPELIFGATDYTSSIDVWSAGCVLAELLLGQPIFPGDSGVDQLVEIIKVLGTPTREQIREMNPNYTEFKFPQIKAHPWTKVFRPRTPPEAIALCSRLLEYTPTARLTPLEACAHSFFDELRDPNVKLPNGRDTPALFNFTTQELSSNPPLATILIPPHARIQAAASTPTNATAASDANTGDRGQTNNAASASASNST
- Test protocol: Radiometric Flashplate potency assay, HsGSK3β
- Assay type: biochemical
- Condition label: ratio of IC50 values

Previously resolved entries follow.
CO[C@H]1CC[C@H](NC(=O)c2n[nH]cc2NC(=O)c2cc(F)cc(F)c2)CC1	<0.21
COc1cccc(OC)c1C(=O)Nc1c[nH]nc1C(=O)N[C@H]1CC[C@H](OC)CC1	<2.5
COc1ccccc1C(=O)Nc1c[nH]nc1C(=O)N[C@H]1CC[C@H](OC)CC1	<3.3

Continue with the next compound.
In: ratio HsGSK3β/TbGSK3 for `CO[C@H]1CC[C@H](NC(=O)c2n[nH]cc2NC(=O)c2cc3ccccn3n2)CC1` ?
Out: <0.080

* * *

Attribute: ratio HsGSK3β/TbGSK3
- Assay system: HsGSK3β (Homo sapiens, UniProt P49841)
- Test protocol: Radiometric Flashplate potency assay, HsGSK3β
- Type: biochemical
- Condition label: ratio of IC50 values

Previously resolved entries follow.
CO[C@H]1CC[C@H](NC(=O)c2n[nH]cc2NC(=O)c2cc3ccccc3o2)CC1	<0.38
CCCCCNC(=O)c1n[nH]cc1NC(=O)c1c(OC)cccc1OC	100
CO[C@H]1CC[C@H](NC(=O)c2n[nH]cc2NC(=O)c2ccccc2C(F)(F)F)CC1	<0.72

In: ratio HsGSK3β/TbGSK3 for `CO[C@H]1CC[C@H](NC(=O)c2n[nH]cc2NC(=O)c2ccc(N3CCCC3)cc2)CC1` ?
Out: <0.26

* * *

- Assay system: HsGSK3β (Homo sapiens, UniProt P49841)
- Test protocol: Radiometric Flashplate potency assay, HsGSK3β
- Assay type: biochemical
- Condition label: ratio of IC50 values
Attribute: ratio HsGSK3β/TbGSK3

Previously resolved entries follow.
CO[C@H]1CC[C@H](NC(=O)c2n[nH]cc2NC(=O)c2ccccc2)CC1	>0.21
CO[C@H]1CC[C@H](NC(=O)c2n[nH]cc2NC(=O)c2ccc(-c3ccccc3)o2)CC1	<0.72
CO[C@H]1CC[C@H](NC(=O)c2n[nH]cc2NC(=O)c2cc(Cl)cc(Cl)c2)CC1	<0.08
CO[C@H]1CC[C@H](NC(=O)c2n[nH]cc2NC(=O)c2ccc(N3CCN(C)CC3)cc2)CC1	<0.071
COc1cccc(OC)c1C(=O)Nc1c[nH]nc1C(=O)NC1CCC(OC)CC1 (centres unmarked)	<2.5
CO[C@H]1CC[C@H](NC(=O)c2n[nH]cc2NC(=O)c2ccc(F)cc2F)CC1	<0.09

In: ratio HsGSK3β/TbGSK3 for `CO[C@H]1CC[C@H](NC(=O)c2n[nH]cc2NC(=O)c2ccc(OC(F)F)cc2)CC1` ?
Out: <0.31

In: ratio HsGSK3β/TbGSK3 for `CO[C@H]1CC[C@H](NC(=O)c2n[nH]cc2NC(=O)c2cnc3ccccn23)CC1` ?
Out: <0.053

* * *

- Assay system: HsCDK2/cyclin A (Homo sapiens, UniProt P24941)
- Test protocol: Radiometric Flashplate potency assay, HsCDK2/cyclin A
- Type: biochemical
- Condition label: ratio of IC50 values
Attribute: ratio HsCDK2/TbGSK3

Previously resolved entries follow.
CO[C@H]1CC[C@H](NC(=O)c2n[nH]cc2NC(=O)c2ccccc2)CC1 [Compound 4f]	<1.6
CO[C@H]1CC[C@H](NC(=O)c2n[nH]cc2NC(=O)c2ccccc2Nc2cccc(C)c2C)CC1 [Compound 4l]	>150
CO[C@H]1CC[C@H](NC(=O)c2n[nH]cc2NC(=O)c2ccccc2Nc2ccccc2)CC1 [Compound 4k]	>910
CO[C@H]1CC[C@H](NC(=O)c2n[nH]cc2NC(=O)c2ccccc2F)CC1 [Compound 4g]	<0.7

Continue with the next molecule.
In: ratio HsCDK2/TbGSK3 for COc1cccc(OC)c1C(=O)Nc1c[nH]nc1C(=O)NC1CC1 [Compound 9a] ?
Out: >830
